# targetDesc: T1, Anti-CD28 Fab (SEQ ID NOs: 696, 697)
# T1 construct: Biotinylated and captured on neutravidin coated plates in the phage ELISA
# T1 sequence (VH, as listed by the source, chain 1 of 2): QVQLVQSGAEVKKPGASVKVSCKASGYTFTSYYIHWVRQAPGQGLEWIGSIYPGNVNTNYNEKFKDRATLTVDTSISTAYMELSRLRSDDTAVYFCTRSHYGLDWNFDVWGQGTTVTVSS
# T1 sequence (VL, as listed by the source, chain 2 of 2): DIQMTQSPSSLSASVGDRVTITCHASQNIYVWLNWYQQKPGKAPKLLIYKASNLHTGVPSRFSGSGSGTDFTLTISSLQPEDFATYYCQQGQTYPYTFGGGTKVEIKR
# assayOverview: phage binding ELISA; clonal phage on biotinylated anti-CD28 Fab captured on neutravidin, anti-M13-HRP detection
Below, each of the binders is paired with its reported Anti-CD28 Fab (SEQ ID NOs: 696, 697) signal value.

Look over these answered cases.
TCAAGATWPWPSCL (peptide, not shown: large carriers) [Phage-1512]    1.61
MCSAGATYPWPYCL (peptide, not shown: large carriers) [Phage-1504]    1.64
TCSAGANYEWPWCF (peptide, not shown: large carriers) [Phage-1509]    1.62
WCTAGFSYKLSICL (peptide, not shown: large carriers) [Phage-1507]    1.63
TCAAGAHYEWPMCY (peptide, not shown: large carriers) [Phage-1510]    1.61

Here's the next entry for you.
IN: I am curious: what Anti-CD28 Fab (SEQ ID NOs: 696, 697) signal value has been reported for LCSAGATYPWPWCM (peptide, not shown: large carriers) [Phage-1505] ?
OUT: 1.64
